MEASUREMENT_TARGET: Integrin alpha-IIb/beta-3 (Homo sapiens, UniProt P05106+P08514)
Sequence (P05106 27-788 limits assumed): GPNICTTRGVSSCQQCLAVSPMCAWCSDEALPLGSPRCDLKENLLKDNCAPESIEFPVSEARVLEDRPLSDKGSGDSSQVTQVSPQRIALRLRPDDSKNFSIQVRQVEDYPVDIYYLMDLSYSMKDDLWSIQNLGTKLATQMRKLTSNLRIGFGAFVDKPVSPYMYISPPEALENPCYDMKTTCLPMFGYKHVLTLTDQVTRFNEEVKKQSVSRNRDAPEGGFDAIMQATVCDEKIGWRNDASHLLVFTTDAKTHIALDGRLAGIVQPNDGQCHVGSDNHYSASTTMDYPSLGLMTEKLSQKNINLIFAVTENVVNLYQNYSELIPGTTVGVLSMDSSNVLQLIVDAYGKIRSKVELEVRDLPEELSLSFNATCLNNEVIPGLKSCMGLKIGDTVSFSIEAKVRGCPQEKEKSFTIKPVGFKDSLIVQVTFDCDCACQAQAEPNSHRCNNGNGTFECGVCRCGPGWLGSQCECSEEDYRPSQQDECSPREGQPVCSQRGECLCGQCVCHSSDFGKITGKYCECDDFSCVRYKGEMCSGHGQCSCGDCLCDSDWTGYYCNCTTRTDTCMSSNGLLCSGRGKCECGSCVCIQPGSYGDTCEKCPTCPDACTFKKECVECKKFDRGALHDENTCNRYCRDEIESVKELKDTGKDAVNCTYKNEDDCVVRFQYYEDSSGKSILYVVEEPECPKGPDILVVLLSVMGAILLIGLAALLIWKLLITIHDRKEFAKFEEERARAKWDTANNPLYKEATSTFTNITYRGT
Sequence (P08514 32-887 limits assumed): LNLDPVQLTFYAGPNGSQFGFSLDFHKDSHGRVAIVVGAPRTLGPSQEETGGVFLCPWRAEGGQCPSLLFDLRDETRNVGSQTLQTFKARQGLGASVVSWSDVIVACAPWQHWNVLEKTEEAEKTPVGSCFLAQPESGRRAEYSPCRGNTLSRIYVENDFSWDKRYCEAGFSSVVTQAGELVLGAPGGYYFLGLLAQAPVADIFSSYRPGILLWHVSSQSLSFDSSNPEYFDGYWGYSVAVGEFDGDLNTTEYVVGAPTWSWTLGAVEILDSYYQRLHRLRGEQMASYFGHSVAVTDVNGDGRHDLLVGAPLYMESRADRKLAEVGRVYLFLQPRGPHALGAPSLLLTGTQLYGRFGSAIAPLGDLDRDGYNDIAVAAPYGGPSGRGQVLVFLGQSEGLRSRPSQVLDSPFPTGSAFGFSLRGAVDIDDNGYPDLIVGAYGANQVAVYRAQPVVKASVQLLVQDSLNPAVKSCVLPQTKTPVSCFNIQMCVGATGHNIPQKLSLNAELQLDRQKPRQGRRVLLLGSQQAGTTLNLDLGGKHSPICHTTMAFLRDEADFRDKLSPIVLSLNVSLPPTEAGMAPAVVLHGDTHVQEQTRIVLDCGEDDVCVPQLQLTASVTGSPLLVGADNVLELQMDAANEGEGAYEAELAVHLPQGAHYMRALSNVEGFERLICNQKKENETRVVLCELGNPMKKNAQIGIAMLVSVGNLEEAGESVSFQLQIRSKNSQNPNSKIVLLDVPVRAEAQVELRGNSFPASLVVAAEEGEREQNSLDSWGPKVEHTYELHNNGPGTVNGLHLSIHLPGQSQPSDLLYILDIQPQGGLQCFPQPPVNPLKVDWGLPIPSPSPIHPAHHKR
Sequence (P08514 891-1039 limits assumed): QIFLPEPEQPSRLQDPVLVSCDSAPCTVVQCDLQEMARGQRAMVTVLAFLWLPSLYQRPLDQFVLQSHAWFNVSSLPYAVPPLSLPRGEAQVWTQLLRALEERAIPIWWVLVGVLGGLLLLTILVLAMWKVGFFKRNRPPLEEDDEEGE
ASSAY_OVERVIEW: Displacement of biotinylated fibrinogen from human glycoprotein 2b/3a receptor after 2 hrs by chemiluminescence assay
PROPERTY: IC50 (µM)

Illustrative cases are given below, each with its answer.
1) O=C(NC[C@H]1CN(c2ccc(N3CCC(C(=O)O)CC3)cc2)C(=O)O1)c1ccc(Cl)c(-c2noc(=O)[nH]2)c1 ... 15.3
2) O=C(O)C1CCN(c2ccc(N3C[C@H](CNCc4ccc(-c5noc(=O)[nH]5)cc4)OC3=O)cc2)CC1 ... 0.89
3) Nc1cc(C(=O)NC[C@@H]2CN(c3ccc(N4CCC(C(=O)O)CC4)cc3)C(=O)O2)ccc1Cl ... 12.8

[1] Nc1cc(C(=O)NC[C@H]2CN(c3ccc(N4CCC(C(=O)O)CC4)cc3)C(=O)O2)ccc1Cl
[2] Nc1ncc(C(=O)NC[C@@H]2CN(c3ccc(N4CCC(C(=O)O)CC4)cc3)C(=O)O2)s1.O=C(O)C(F)(F)F
stdin: I'm curious, which of these has a smaller IC50 number: 1 or 2 ? Indicate your choice by writing its label.
stdout: 2
(2: 16.8 µM, 1: 25.8 µM)
